Reported viability, T/C by item:
Tested on: 354836-022-R-J1-PDC multicell spheroid viability;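 note: spheroids exposed to agents for seven days before the viability read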
assayName: Anticancer human tumor 354836-022-R-J1-PDC patient-derived head and neck squamous cell carcinoma cell line growth inhibition [PI3K]
conditionNotes: second compound 10 µM; first compound 0.0316 µM; stronger effect = lower value

>  <compound>
Cn1nccc1Nc1nccc(-c2ccn(C(CO)c3ccc(Cl)c(F)c3)c(=O)c2)n1 (stereo not given) + Cc1nc(NC(=O)N2CCCC2C(N)=O)sc1-c1ccnc(C(C)(C)C(F)(F)F)c1

>  <displayUnit>
%

>  <viability, T/C>
35.6

$$$$
>  <compound>
CC(=O)c1c(C)c2cnc(Nc3ccc(N4CCNCC4)cn3)nc2n(C2CCCC2)c1=O + Cc1nc(NC(=O)N2CCCC2C(N)=O)sc1-c1ccnc(C(C)(C)C(F)(F)F)c1

>  <displayUnit>
%

>  <viability, T/C>
34.9

$$$$
>  <compound>
CC(=O)c1c(C)c2cnc(Nc3ccc(N4CCNCC4)cn3)nc2n(C2CCCC2)c1=O + CC(Nc1ncnc2nc[nH]c12)c1cc2cccc(Cl)c2c(=O)n1-c1ccccc1

>  <displayUnit>
%

>  <viability, T/C>
98.8

$$$$
>  <compound>
C[C@@H](NC(=O)c1ncnc(N)c1Cl)c1ncc(C(=O)Nc2cc(C(F)(F)F)c(Cl)cn2)s1 + CC(Nc1ncnc2nc[nH]c12)c1cc2cccc(Cl)c2c(=O)n1-c1ccccc1

>  <displayUnit>
%

>  <viability, T/C>
82.7

$$$$
>  <compound>
CC1(C)CCC(CN2CCN(c3ccc(C(=O)NS(=O)(=O)c4ccc(NCC5CCOCC5)c([N+](=O)[O-])c4)c(Oc4cnc5[nH]ccc5c4)c3)CC2)=C(c2ccc(Cl)cc2)C1 + Cc1nc(NC(=O)N2CCCC2C(N)=O)sc1-c1ccnc(C(C)(C)C(F)(F)F)c1

>  <displayUnit>
%

>  <viability, T/C>
38.1

$$$$
>  <compound>
CC1(C)CCC(Nc2ncc(C(F)(F)F)c(-c3c[nH]c4c(P(C)(C)=O)c(C#N)ccc34)n2)CN1 (stereo not given) + Cc1nc(NC(=O)N2CCCC2C(N)=O)sc1-c1ccnc(C(C)(C)C(F)(F)F)c1

>  <displayUnit>
%

>  <viability, T/C>
12.7

$$$$
>  <compound>
Cn1ncc(Cl)c1-c1cc(C(=O)NC(CN)Cc2cccc(F)c2)sc1Cl (stereo not given) + Cc1nc(NC(=O)N2CCCC2C(N)=O)sc1-c1ccnc(C(C)(C)C(F)(F)F)c1

>  <displayUnit>
%

>  <viability, T/C>
34.2

$$$$
>  <compound>
CC1(C)CCC(CN2CCN(c3ccc(C(=O)NS(=O)(=O)c4ccc(NCC5CCOCC5)c([N+](=O)[O-])c4)c(Oc4cnc5[nH]ccc5c4)c3)CC2)=C(c2ccc(Cl)cc2)C1 + CC(Nc1ncnc2nc[nH]c12)c1cc2cccc(Cl)c2c(=O)n1-c1ccccc1

>  <displayUnit>
%

>  <viability, T/C>
90.9

$$$$
>  <compound>
CC(Cn1ccc(-c2ccc(C#N)c(Cl)c2)n1)NC(=O)c1cc(C(C)O)[nH]n1 (stereo not given) + Cc1nc(NC(=O)N2CCCC2C(N)=O)sc1-c1ccnc(C(C)(C)C(F)(F)F)c1

>  <displayUnit>
%

>  <viability, T/C>
43.6

$$$$
>  <compound>
Cn1ncnc1[C@H]1c2n[nH]c(=O)c3cc(F)cc(c23)N[C@@H]1c1ccc(F)cc1 + CC(Nc1ncnc2nc[nH]c12)c1cc2cccc(Cl)c2c(=O)n1-c1ccccc1

>  <displayUnit>
%

>  <viability, T/C>
89.3

$$$$
